Every entry's value here was drawn from patent US20150329594A1.

# Target Or System: human complement protein C3 (human, UniProt P01024 23-1663)
# Sequence (P01024 23-1663 limits assumed): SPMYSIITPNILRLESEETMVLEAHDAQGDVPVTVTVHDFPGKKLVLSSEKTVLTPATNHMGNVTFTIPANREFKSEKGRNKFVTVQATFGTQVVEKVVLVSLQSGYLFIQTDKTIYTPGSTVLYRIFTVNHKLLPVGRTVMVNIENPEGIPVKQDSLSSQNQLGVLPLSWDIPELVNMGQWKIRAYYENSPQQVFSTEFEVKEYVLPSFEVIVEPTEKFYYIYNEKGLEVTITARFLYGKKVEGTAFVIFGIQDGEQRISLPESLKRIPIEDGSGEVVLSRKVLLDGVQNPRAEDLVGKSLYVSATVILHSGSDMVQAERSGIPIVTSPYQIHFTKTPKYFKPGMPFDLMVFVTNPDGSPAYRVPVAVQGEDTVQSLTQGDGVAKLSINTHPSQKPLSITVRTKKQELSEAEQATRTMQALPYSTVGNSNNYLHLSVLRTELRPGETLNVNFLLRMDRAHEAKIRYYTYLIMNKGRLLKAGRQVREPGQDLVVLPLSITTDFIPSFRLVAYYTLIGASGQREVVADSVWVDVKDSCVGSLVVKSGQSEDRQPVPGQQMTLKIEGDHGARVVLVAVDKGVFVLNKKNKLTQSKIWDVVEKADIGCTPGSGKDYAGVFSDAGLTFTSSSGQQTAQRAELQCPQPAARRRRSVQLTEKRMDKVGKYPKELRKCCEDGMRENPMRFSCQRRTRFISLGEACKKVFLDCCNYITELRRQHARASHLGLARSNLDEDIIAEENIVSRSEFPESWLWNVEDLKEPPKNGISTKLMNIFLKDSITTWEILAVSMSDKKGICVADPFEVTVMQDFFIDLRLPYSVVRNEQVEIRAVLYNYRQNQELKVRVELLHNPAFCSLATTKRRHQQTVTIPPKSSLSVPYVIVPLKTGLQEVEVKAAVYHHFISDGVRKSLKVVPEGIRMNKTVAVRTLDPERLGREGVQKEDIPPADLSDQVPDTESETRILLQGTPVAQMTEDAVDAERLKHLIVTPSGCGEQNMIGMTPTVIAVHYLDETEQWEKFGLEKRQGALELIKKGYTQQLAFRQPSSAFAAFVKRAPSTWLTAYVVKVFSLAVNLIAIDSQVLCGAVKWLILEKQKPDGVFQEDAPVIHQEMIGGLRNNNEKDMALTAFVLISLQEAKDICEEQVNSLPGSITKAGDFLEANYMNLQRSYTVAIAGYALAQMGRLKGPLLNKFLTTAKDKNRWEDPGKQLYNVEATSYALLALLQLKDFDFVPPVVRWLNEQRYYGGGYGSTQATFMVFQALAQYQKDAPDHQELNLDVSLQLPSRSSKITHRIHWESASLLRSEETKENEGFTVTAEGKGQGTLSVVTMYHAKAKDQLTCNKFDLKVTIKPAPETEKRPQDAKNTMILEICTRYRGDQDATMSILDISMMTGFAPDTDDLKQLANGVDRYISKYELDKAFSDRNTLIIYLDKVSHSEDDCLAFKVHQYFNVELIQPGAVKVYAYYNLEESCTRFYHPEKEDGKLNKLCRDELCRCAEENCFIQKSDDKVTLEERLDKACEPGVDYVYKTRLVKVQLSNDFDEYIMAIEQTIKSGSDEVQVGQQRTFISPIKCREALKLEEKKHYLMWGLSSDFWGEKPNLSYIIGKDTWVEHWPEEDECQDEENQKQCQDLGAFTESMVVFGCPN
# Experiment Description: cell-based or functional assay
Bridge positions count the residues as written; N and C are the ends. Square brackets hold non-standard residues; d marks the D form. Nal = 1-naphthylalanine or 2-naphthylalanine; Trp(1-Me) = Cn1cc(C[C@H](N)C(=O)O)c2ccccc21; Aal = not defined here
Endpoint: C5b-9 ELISA IC50 (nM)
Please reply with the bare figure in nM and do not write the unit itself.

// worked examples, C5b-9 ELISA IC50 included
Binder	Endpoint	Result Unit	Endpoint Value
Ac-ICV[Trp(1-Me)]QDWG[Nal]HRCT-NH2 (disulfide 2-12; not fully specified; printed as Ac-ICV{meW}QDWG{Nal}HRCT-NH2) [Peptide 2.1, Ac-ICVmeWQDWG{Nal}HRCT-NH2]	C5b-9 ELISA IC50	nM	900
Ac-ICVWQDWG[Aal]HRCT-NH2 (disulfide 2-12; reading uncertain; also: printed as Ac-ICVWQDWG{Aal}HRCT-NH2) [Peptide 2.4, Ac-ICVWQDWG{Aal}HRCT-NH2]	C5b-9 ELISA IC50	nM	800

Ac-ICVWQDWG[Nal]HRCT-NH2 (disulfide 2-12; not fully specified; printed as Ac-ICVWQDWG{Nal}HRCT-NH2) [Peptide 2.2, Ac-ICVWQDWG{Nal}HRCT-NH2] has a reported C5b-9 ELISA IC50 of 2000

Ac-NNLCVWQDWG[Nal]HRCT-NH2 (disulfide 4-14; not fully specified; printed as Ac-NN-LCVWQDWG{Nal}HRCT-NH2) [Peptide 4.2, Ac-NN-LCVWQDWG{Nal}HRCT-NH2] has a reported C5b-9 ELISA IC50 of 1900
